# System: MOLT-4
# TEST NAME: NCI tumour cell line growth inhibition, 48 h
Calls of active or inactive are those of the source. Cut-off read from the data, not from the text of the source: active = GI50 up to about 1.1 µM and inactive = higher.
Answer each item with its documented GI50.

Give GI50 for each of the items listed below.
1. O=C(CC/C=C(/CS(=O)(=O)c1ccccc1)S(=O)(=O)c1ccccc1)c1ccccc1
2. CCCCCCCCCCC(O)C1CCC(C(O)CCC(O)C2CCC(CCCCCCC[C@H](O)CC3=C[C@@H](C)OC3=O)O2)O1 (stereo not given in full)
3. CC(=O)OCC(=O)O[C@@H]1[C@H]2[C@@H](OC(=O)c3ccccc3)[C@@H](C)C[C@]2(O)[C@H](OC(C)=O)[C@@]2(C)C[C@]1(OC(C)=O)C[C@H]1C(=O)C(C)(C)[C@@H](OC(C)=O)[C@@H]12
4. Cc1ccc(S(=O)(=O)N/N=C2\CC3CC4CCC2C4C3)cc1 (stereo not given)
5. CCOC(=O)/C=C/c1c[nH]c(C(=O)OCC)c1
6. CCCCCCCCOCC(O)CO (stereo not given)

Resp:
1. > 100 µM (inactive)
2. 2.02 µM (inactive)
3. > 5.14 µM (inactive)
4. > 100 µM (inactive)
5. > 100 µM (inactive)
6. 44.7 µM (inactive)

Quick one: give me GI50 for each item below, same order please.
1. CN(c1ccccc1)C(c1ccccc1)C(O)c1ccccc1 (stereo not given)
2. O=C(O)c1cc(O)c2c(c1)C([C@@H]1c3cccc(O)c3C(=O)c3c(O)cc(C(=O)O)cc31)c1cccc(O)c1C2=O (stereo not given in full)
3. CCOC(=O)Cc1csc(N/N=C2\C(=O)Nc3ccccc32)n1
4. COc1ccc(C(=C2C(=O)N(c3ccccc3)C(=O)C2=C(C)C)c2ccc(OC)cc2)cc1

Resp:
12.8 µM (inactive)
20.7 µM (inactive)
29 µM (inactive)
2.54 µM (inactive)

----------
Can you tell me GI50 for the items I'm about to list?
# System: SNB-75
# TEST NAME: NCI tumour cell line growth inhibition, 48 h
Active and inactive are the calls of the source. No stated cut-off is given here; in the data, active = GI50 up to about 1.1 µM and inactive = higher.

Here are 5 compounds together with their reported answers.
COMPOUND	RESULT
Oc1nncc2[nH]c(-c3ccccc3)cc12	22.9 µM (inactive)
COc1cc(C(N)=O)cc(NC(=O)/C=C/c2ccccc2)c1OC	19.7 µM (inactive)
CC1(C)CN=C(Nc2ccc(F)cc2)S1	> 100 µM (inactive)
COC(=O)/C=C1\C(=O)N(C(C)=O)c2ccccc21	12.5 µM (inactive)
Cc1cc2c(c(C(N)=O)c1C)-c1ccccc1C2=O	83.2 µM (inactive)

Each of the following entries comes with a recorded value; kindly state GI50 for each.
1. CCCCCCCCCCCCCCCCCCOC[C@H](COP(=O)(O)O[C@H]1[C@H](O)[C@@H](O)[C@H](O)C[C@H]1O)OC
2. C[Si](C)(C)/C(I)=C/CO
3. COC(=O)c1c2c(cc3c1CC1(C3)Cc3ccc4c(c3C1=O)CCC4)CCC2 (stereo unspecified)
4. CCOC(=O)C(NCc1cccc(C(F)(F)F)c1)(NC(=O)CC)C(F)(F)F (stereo unspecified)

Resp:
19.2 µM (inactive)
53.6 µM (inactive)
4.33 µM (inactive)
63.5 µM (inactive)

Dear colleague, could you please provide GI50 for the compounds listed below?
1. CSc1ncc2c(n1)-c1ccccc1OC2NC(C)(C)C (stereo unspecified)
2. COC(=O)C(C(=O)C(=O)NC1=C(Cl)C(=O)c2ccccc2C1=O)c1csc(-n2nc(-c3ccccc3)cc2-c2ccccc2)n1 (stereo unspecified)

Resp:
1: 27.2 µM (inactive); 2: 1.65 µM (inactive)

----------
# Test system: SF-539
# TEST NAME: NCI tumour cell line growth inhibition, 48 h
The source made the active and inactive calls. Cut-off read from the data, not from the text of the source: active = GI50 up to about 1.1 µM and inactive = higher. Non-standard residues stand in square brackets, D forms with d. Residues, ends and D or L forms follow the SMILES beside them. ξ: configuration not given here. Pen = CC(C)(S)[C@H](N)C(=O)O; ξL = CC(C)CC(N)C(=O)O
Write down one outcome, taken from active, inactive

Previously resolved entries follow.
COMPOUND	LABEL
O=c1cc(NNc2cccc(Cl)c2)[nH]c(=O)[nH]1	inactive
O=C(NC(=O)c1ccccc1[N+](=O)[O-])Nc1ccc(Oc2ncc(Cl)cn2)c(C(F)(F)F)c1	active
Cc1ccc(C2=Nc3cc(C)c(Cl)cc3S(=O)(=O)NN2)cc1	inactive
CC(=O)OC1(Sc2ccccc2)CC2[C@H]3COC(C)(C)O[C@H]3CC[C@@]2(C)CC1=O (some centres not stated)	inactive
O=C(NCCOC(=O)OCCNC(=O)NC1CCCCC1)NC1CCCCC1	inactive
CC(C)C1=C(O)C(=O)C2=C(C1=O)C(O)CC1C(C)(C)CCCC21C (configuration not stated)	inactive

Req: How was "CC1(C)CN=C(Nc2ccc(F)cc2)S1" classified in this test?
Resp: inactive

Req: How was "COc1cc2c(cc1OC)-c1cc3cc(OC)c(OC)cc3c(=O)n1CC2" classified in this test?
Resp: inactive

Req: Recorded test call requested for "COc1ccc(/C=C2/C(=O)N(C(=O)c3ccc(Cl)cc3)N=C2C)cc1OC"
Resp: inactive

Req: What outcome does the record of this test show for "CC(C)c1cc2c(O)c(c1)Cc1cc(C(C)C)cc(c1O)Cc1cc(C(C)C)cc(c1O)Cc1cc(C(C)C)cc(c1O)C2" ?
Resp: inactive

Req: # lookup: test call for Cc1cc(NC(=O)C2C3C=CC(O3)C2C(=O)O)no1 (configuration not stated)
Resp: inactive

Req: Any idea what this test logged for "C/C(=N\Nc1nc2ccccc2o1)c1cccc[n+]1[O-]" ?
Resp: inactive

Req: Just curious, what result did "O=C(CNc1ccc2c(=S)c3ccccc3[nH]c2c1)Nc1ccccc1-c1ccccc1NC(=O)CNc1ccc2c(=S)c3ccccc3[nH]c2c1" get here?
Resp: inactive

Req: Tell me the assay call for N#CC12COC3(CCCCC3C1(C#N)C#N)OC2=N (configuration not stated) please.
Resp: inactive

Req: Dear all, I need the recorded test outcome for "O=C(/C=C/c1ccc(O)cc1)NCCc1ccc(O)cc1" , thank you.
Resp: inactive

Req: Call for entry CSCC[C@H](NC(=O)C(CC(C)C)NC(=O)[C@H](Cc1c[nH]cn1)NC(=O)CNC(=O)[C@@H](NC(=O)[C@@H](C)NC(=O)[C@H](Cc1c[nH]c2ccccc12)NC(=O)[C@H](CCC(N)=O)NC(=O)[C@@H](N)CC(N)=O)C(C)(C)SC)C(N)=O (some centres not stated) (H-NQW[dA][Pen](Me)GH[ξL]M-NH2) :
Resp: inactive

Req: How did this test come out for "O=C1COC(c2ccccc2O)=NN1CCCN1CCCC1" ?
Resp: inactive

Req: Could you check what this test reported for "COc1cc(/C=N/NC(=O)c2c(Cl)c(Cl)c(Cl)c(Cl)c2-c2nc3ccccc3[nH]2)ccc1O" ?
Resp: inactive

Req: State the result this test recorded for Clc1ccccc1C1SCc2nc3ccccc3n21 (configuration not stated) .
Resp: inactive

Req: What did the test return for "O=C1C(NS(=O)(=O)c2ccccc2)=C(n2ccnc2)C(=O)c2ccccc21" ?
Resp: inactive

Req: Per the assay record, what outcome was assigned to CCCCCCCCCCCCCC(=O)OCC(CCS(=O)(=O)O[C@H]1CC[C@@]2(C)C(=CC[C@@H]3C2CC[C@]2(C)C(=O)CCC32)C1)OC(=O)CCCCCCCCCCCCC (some centres not stated) ?
Resp: inactive

Req: Per the assay record, what outcome was assigned to CCCCCCCCOCC(O)CO (configuration not stated) ?
Resp: inactive

----------
Provide the reported GI50 of each item.
# System: A549
# TEST NAME: NCI tumour cell line growth inhibition, 48 h
Calls of active or inactive are those of the source. No stated cut-off is given here; in the data, active = GI50 up to about 1.1 µM and inactive = higher.

// solved cases for GI50 follow
COMPOUND	RESULT
CC12C3CC4C5CC(C(C53)[C@@H]1NCc1ccccc1)C42 (stereo partly specified)	> 100 µM (inactive)
CSCC1CC(c2ccc(Cl)cc2)=NO1 (stereo unspecified)	> 100 µM (inactive)
CN(C)CCCNC(=O)CCNC(=O)c1cc(NC(=O)c2cc(NC(=O)c3cc(NC(=O)CCCNC(=O)c4cc(NC(=O)c5cc(NC(=O)c6nccn6C)cn5C)cn4C)cn3C)cn2C)cn1C	> 100 µM (inactive)
NCCCC(N)(C(=O)O)C(F)F (stereo unspecified)	> 5000 µM (inactive)
Cc1ccc(S(=O)(=O)N/N=C2\CC3CC4CCC2C4C3)cc1 (stereo unspecified)	> 100 µM (inactive)
COC(=O)C(=O)OC1(C(C)=O)CC2(c3ccccc3)OC1(c1ccccc1)c1ccccc12 (stereo unspecified)	14.8 µM (inactive)
CCN(CC)CCNc1c2ccccc2nc2cccc([N+](=O)[O-])c12	0.00826 µM (active)
Cn1c2ccccc2n2c3ccccc3c3nnc(N)c-3c12	> 100 µM (inactive)
CC12CCC(=O)[C@@]1(C)CCCC2O (stereo partly specified)	> 100 µM (inactive)
C=C1CCCCCCCCC/C=C/1SCCCSC	> 100 µM (inactive)

List GI50 for every entry below, keeping the order given.
1. CCCCCCCCCCCCCC(=O)OCC(CCS(=O)(=O)O[C@H]1CC[C@@]2(C)C(=CC[C@@H]3C2CC[C@]2(C)C(=O)CCC32)C1)OC(=O)CCCCCCCCCCCCC (stereo partly specified)
2. NS(=O)(=O)c1ccc(-c2ccc([As](=O)(O)O)cc2)cc1
3. CC(C)(C)[C@@H]1NC(=O)CN1C(=O)OCc1ccccc1
4. COC(=O)NC(Nc1ccc(C)cc1)(C(F)(F)F)C(F)(F)F
5. O=C1c2ccccc2N2Oc3ccccc3C12c1ccccc1 (stereo unspecified)
6. OC1CSCCCSCCSCCCSC1

Resp:
["> 100 µM (inactive)", "> 100 µM (inactive)", "> 100 µM (inactive)", "> 100 µM (inactive)", "> 100 µM (inactive)", "> 100 µM (inactive)"]

The measured values listed here are drawn from ChEMBL document CHEMBL1201862.
